- Protocol details: Evaluation of solubility of dyes
- Type: physicochemical
- Settings: DMSO added to a dye concentration of about 100 mM
- Description: Furthermore, using anionic, neutral, zwitter, and dicationic dyes shown in Table 1, solubility into a buffer, toxicity, and presence or absence of SHG and TPF signals when applied to cultured cells (CHO cells) were evaluated, respectively. Herein, the dyes #1 to 5 are dyes for generating a second harmonic of light outside of the range of the present invention, and the dyes #6 and 7 are dyes for generating a second harmonic of light within the range of the present invention. […]
Readout type: Dissolving in DMSO

These recorded examples may help you get a feel for the data.
{"columns": ["Compound", "Dissolving in DMSO"],
 "data": [
  ["CCCCN(CCCC)c1ccc(/N=N/c2ccc(S(=O)(=O)O)cc2)cc1 [#1]", "easily dissolved"],
  ["CCCCCCCCN(CCCCCCCC)c1ccc(/N=N/c2cc[n+](CCCS(=O)(=O)[O-])cc2)cc1 [#7]", "poor solubility"],
  ["CCCCCCCCN(CCCCCCCC)c1ccc(/N=N/c2ccc(S(=O)(=O)O)cc2)cc1 [#3]", "easily dissolved"],
  ["CCCCCCN(CCCCCC)c1ccc(/N=N/c2cc[n+](CCCS(=O)(=O)[O-])cc2)cc1 [#6]", "poor solubility"],
  ["CCCCCCN(CCCCCC)c1ccc(/N=N/c2ccc(C=O)cc2)cc1 [#4]", "no dissolving"],
  ["CCCCCCN(CCCCCC)c1ccc(/N=N/c2ccc(C=C(C#N)C#N)cc2)cc1 [#5]", "no dissolving"]
]}

Shifting focus to the compound that follows.
Query block: Any idea what Dissolving in DMSO was measured for CCCCCCN(CCCCCC)c1ccc(/N=N/c2ccc(S(=O)(=O)O)cc2)cc1 [#2] ?
Result block: easily dissolved

* * *

- Protocol details: Evaluation of solubility of dyes
- Type: physicochemical
- Settings: extracellular fluid (Artificial Cerebrospinal Fluid), aqueous buffer, kinetic from dmso stock; solubility into a buffer; DMSO solution diluted 1000 times with extracellular fluid
- Protocol: Furthermore, using anionic, neutral, zwitter, and dicationic dyes shown in Table 1, solubility into a buffer, toxicity, and presence or absence of SHG and TPF signals when applied to cultured cells (CHO cells) were evaluated, respectively. Herein, the dyes #1 to 5 are dyes for generating a second harmonic of light outside of the range of the present invention, and the dyes #6 and 7 are dyes for generating a second harmonic of light within the range of the present invention. […]
Readout type: solubility

These recorded examples may help you get a feel for the data.
{"columns": ["Chemical structure", "Observed value"],
 "data": [
  ["CCCCCCCCN(CCCCCCCC)c1ccc(/N=N/c2cc[n+](CCCS(=O)(=O)[O-])cc2)cc1", "< 100 µM"],
  ["CCCCN(CCCC)c1ccc(/N=N/c2ccc(S(=O)(=O)O)cc2)cc1", "~100 µM"],
  ["CCCCCCN(CCCCCC)c1ccc(/N=N/c2ccc(S(=O)(=O)O)cc2)cc1", "~100 µM"],
  ["CCCCCCN(CCCCCC)c1ccc(/N=N/c2cc[n+](CCC[N+](CC)(CC)CC)cc2)cc1", "100 µM"],
  ["CCCCCCN(CCCCCC)c1ccc(/N=N/c2cc[n+](CCCS(=O)(=O)[O-])cc2)cc1", "< 100 µM"]
]}

Shifting focus to the molecule that follows.
Query block: Any idea what solubility was measured for CCCCCCCCN(CCCCCCCC)c1ccc(/N=N/c2ccc(S(=O)(=O)O)cc2)cc1 ?
Result block: ~100 µM

The values you see were collected from patent US9709555B2.
